Target: Solute carrier family 22 member 1 (Homo sapiens, UniProt O15245)
Sequence (O15245 whole entry): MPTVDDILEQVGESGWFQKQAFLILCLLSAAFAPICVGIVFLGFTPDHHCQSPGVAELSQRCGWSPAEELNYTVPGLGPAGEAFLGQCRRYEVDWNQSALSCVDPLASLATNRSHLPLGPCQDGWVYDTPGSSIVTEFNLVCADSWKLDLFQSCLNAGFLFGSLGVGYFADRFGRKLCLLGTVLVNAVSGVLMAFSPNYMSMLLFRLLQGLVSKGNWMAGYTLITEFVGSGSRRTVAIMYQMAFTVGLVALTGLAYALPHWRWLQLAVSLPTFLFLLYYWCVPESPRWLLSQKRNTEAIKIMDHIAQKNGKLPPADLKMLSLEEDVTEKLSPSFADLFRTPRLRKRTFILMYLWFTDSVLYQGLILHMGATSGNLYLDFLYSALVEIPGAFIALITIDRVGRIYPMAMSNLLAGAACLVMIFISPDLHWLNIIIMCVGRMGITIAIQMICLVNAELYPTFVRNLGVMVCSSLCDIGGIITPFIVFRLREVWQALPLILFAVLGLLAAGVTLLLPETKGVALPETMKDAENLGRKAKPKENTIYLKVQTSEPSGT
Experiment: TP_TRANSPORTER: inhibition of MPP+ uptake (MPP+: 0.025 uM) in OCT1-expressing HEK293 cells
property label: IC50
Report the figure along with its unit, number first.

molecule	property label	endpoint value
CC(COc1ccccc1)N(CCCl)Cc1ccccc1 (stereo not drawn) [PHENOXYBENZAMINE]	IC50	2720 nM

molecule COc1cc2nc(N3CCN(C(=O)c4ccco4)CC3)nc(N)c2cc1OC [PRAZOSIN] , IC50 observed: 1840 nM

// field: IC50; key: C[C@]12CC[C@@H]3c4ccc(O)cc4CC[C@H]3[C@@H]1CC[C@@H]2O [ESTRADIOL] ; value = 5730 nM

###

Molecular target: Solute carrier family 22 member 3 (Homo sapiens)
Experiment: TP_TRANSPORTER: inhibition of MPP+ uptake (MPP+: 0.025 uM) in OCT3-expressing HEK293 cells
In this section, each of the molecules is paired with its reported IC50.
Write the number in µM without appending the unit.

Form field IC50, entry CCN1/C(=C/c2ccc3ccccc3[n+]2CC)C=Cc2ccccc21 : 0.09

###

Biological target: Solute carrier family 22 member 3 (Homo sapiens, UniProt O75751)
Sequence (O75751 whole entry): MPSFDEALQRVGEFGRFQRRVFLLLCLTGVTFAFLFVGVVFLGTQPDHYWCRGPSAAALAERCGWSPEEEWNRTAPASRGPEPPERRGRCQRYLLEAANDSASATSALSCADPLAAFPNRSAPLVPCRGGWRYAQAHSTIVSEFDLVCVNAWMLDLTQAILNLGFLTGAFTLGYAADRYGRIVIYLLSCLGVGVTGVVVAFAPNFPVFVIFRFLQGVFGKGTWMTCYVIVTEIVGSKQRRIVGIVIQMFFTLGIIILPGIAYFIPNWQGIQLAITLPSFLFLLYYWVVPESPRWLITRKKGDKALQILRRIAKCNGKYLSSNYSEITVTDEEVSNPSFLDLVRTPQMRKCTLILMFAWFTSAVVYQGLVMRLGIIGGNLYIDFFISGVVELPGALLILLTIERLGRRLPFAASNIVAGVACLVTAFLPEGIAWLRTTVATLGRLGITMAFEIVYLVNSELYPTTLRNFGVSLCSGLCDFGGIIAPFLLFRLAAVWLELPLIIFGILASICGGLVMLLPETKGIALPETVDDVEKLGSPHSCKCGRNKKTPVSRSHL
Assay: TP_TRANSPORTER: inhibition of MPP+ uptake (MPP+: 0.025 uM) in OCT3-expressing HEK293 cells
Each record here notes measured pIC50.
When answering, recall that pIC50 equals minus log10 of the concentration in mol/L, and write that number alone.

Consider the worked cases shown below.
compound	system tested	pIC50
CC(COc1ccccc1)N(CCCl)Cc1ccccc1 (configuration not stated) [PHENOXYBENZAMINE]	Solute carrier family 22 member 3 (Homo sapiens, UniProt O75751)	5.21
COc1cc(C(O)CNC(C)C)ccc1O (configuration not stated) [METIPRENALINE]	Solute carrier family 22 member 3 (Homo sapiens, UniProt O75751)	5.36
C[C@]12C[C@H](O)[C@H]3[C@@H](CCC4=CC(=O)CC[C@@]43C)[C@@H]1CC[C@@H]2C(=O)CO [CORTICOSTERONE]	Solute carrier family 22 member 3 (Homo sapiens, UniProt O75751)	6.54
CN(CCCl)C1c2ccccc2-c2ccccc21	Solute carrier family 22 member 3 (Homo sapiens, UniProt O75751)	7.30
C[C@]12CC[C@@H]3c4ccc(O)cc4CC[C@H]3[C@@H]1CC[C@@H]2O [ESTRADIOL]	Solute carrier family 22 member 3 (Homo sapiens, UniProt O75751)	5.54
COc1cc2nc(N3CCN(C(=O)c4ccco4)CC3)nc(N)c2cc1OC [PRAZOSIN]	Solute carrier family 22 member 3 (Homo sapiens, UniProt O75751)	4.90

// moving on: another record for pIC50
Note to self: pIC50 recorded for CC(=O)[C@H]1CC[C@H]2[C@@H]3CCC4=CC(=O)CC[C@]4(C)[C@H]3CC[C@]12C [PROGESTERONE] was 5.37

All figures here come from ChEMBL document CHEMBL2074233.
